- protocol-conditions: Table 2; pH of the solution
Label met for high-side pH (at or above 9) and not met for low-side pH (below it).

As a guide, the following entries are already answered.
[[record]]
compound = "O=C(CCCCCCC(=O)Nc1ccccc1)N[O-].O=C(CCCCCCC(=O)Nc1ccccc1)N[O-].[Ni+2] [Compound 3, Ni(saha)2]"
assigned_label = "not met"

[[record]]
compound = "O=C(CCCCCCC(=O)Nc1ccccc1)N[O-].O=C(CCCCCCC(=O)Nc1ccccc1)N[O-].[Ca+2] [Compound 2, Ca(saha)2]"
assigned_label = "not met"

[[record]]
compound = "O=C(CCCCCCC(=O)Nc1ccccc1)N[O-].[Na+] [Na(saha)]"
assigned_label = "met"

[[record]]
compound = "O=C(CCCCCCC(=O)Nc1ccccc1)NO [SAHA, suberoylanilide hydroxamic acid]"
assigned_label = "not met"


Then this compound:
Record O=C(CCCCCCC(=O)Nc1ccccc1)N[O-].O=C(CCCCCCC(=O)Nc1ccccc1)N[O-].[Mg+2] [Compound 1, Mg(saha)2] ; criterion: pH no lower than 9. Met?
not met
